Measurement Target: Myosin-7 (Bos taurus, UniProt Q9BE39)
Sequence (Q9BE39 whole entry, looked up): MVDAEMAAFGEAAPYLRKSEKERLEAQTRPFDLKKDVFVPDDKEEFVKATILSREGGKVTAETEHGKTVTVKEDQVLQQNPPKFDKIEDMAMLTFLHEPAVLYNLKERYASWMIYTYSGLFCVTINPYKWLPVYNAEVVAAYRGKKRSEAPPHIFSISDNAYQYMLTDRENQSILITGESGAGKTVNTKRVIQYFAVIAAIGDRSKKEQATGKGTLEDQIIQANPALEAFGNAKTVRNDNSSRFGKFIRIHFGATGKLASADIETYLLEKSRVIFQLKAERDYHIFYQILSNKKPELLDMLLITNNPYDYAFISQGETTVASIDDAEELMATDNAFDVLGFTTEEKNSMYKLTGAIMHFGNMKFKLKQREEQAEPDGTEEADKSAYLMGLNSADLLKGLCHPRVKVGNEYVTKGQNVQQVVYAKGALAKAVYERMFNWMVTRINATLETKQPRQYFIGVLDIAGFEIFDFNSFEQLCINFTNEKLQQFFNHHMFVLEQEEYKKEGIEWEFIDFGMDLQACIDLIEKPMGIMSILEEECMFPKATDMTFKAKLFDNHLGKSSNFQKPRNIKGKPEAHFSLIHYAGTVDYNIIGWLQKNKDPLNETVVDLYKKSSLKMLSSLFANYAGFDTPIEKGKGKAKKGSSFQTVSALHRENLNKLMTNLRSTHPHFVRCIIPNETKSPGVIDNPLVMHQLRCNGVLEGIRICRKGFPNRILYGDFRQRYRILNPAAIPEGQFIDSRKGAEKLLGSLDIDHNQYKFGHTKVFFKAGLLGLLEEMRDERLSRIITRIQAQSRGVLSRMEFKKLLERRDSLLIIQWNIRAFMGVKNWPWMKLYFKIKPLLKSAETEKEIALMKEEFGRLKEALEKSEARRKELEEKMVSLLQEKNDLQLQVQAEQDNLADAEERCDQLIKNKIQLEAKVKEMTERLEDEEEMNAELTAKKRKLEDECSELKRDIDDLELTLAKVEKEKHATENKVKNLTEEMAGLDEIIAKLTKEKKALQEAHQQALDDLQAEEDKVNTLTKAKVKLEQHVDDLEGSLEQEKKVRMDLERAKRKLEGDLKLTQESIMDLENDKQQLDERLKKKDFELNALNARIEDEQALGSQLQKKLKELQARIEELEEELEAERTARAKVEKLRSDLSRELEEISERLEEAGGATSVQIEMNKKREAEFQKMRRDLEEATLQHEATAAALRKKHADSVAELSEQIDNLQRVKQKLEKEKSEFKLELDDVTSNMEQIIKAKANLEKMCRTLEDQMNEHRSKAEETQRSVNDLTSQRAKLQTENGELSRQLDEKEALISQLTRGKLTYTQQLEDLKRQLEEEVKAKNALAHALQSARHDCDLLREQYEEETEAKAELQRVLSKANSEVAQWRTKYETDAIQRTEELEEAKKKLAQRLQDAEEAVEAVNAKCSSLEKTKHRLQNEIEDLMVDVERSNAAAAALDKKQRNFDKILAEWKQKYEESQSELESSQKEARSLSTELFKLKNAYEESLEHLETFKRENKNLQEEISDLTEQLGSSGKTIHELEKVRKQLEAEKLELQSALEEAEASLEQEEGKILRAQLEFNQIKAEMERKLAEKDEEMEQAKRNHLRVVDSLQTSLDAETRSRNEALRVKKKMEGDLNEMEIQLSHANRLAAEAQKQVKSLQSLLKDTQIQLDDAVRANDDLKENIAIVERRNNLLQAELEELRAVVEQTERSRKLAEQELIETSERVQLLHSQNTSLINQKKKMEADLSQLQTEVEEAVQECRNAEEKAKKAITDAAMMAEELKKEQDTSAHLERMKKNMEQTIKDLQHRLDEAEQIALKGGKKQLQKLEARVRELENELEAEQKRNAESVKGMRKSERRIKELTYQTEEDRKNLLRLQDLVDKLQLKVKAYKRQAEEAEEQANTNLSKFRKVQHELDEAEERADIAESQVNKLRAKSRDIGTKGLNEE
Catalogue of IC50 readings, one per entry.

Here are 3 compounds together with their reported answers.
C[C@H](Nc1nc(=O)n(-c2ccccc2)c(=O)[nH]1)C1CCCCC1    8.05 µM
Cc1cccc([C@H](C)Nc2nc(=O)n(C3CCOCC3)c(=O)[nH]2)c1    0.8 µM
C[C@H](Nc1nc(=O)n(C2CCOCC2)c(=O)[nH]1)c1cc(Cl)ccc1Cl    0.93 µM

Moving on to the next compound.
query: Look up IC50 of CC(C)C(O)c1cccc([C@H](C)Nc2nc(=O)n(C3CCOCC3)c(=O)[nH]2)c1 (some centres undefined) and report it.
result: 1.18 µM
